# measured target: Estrogen receptor (Homo sapiens)
# Sequence (P03372 whole entry): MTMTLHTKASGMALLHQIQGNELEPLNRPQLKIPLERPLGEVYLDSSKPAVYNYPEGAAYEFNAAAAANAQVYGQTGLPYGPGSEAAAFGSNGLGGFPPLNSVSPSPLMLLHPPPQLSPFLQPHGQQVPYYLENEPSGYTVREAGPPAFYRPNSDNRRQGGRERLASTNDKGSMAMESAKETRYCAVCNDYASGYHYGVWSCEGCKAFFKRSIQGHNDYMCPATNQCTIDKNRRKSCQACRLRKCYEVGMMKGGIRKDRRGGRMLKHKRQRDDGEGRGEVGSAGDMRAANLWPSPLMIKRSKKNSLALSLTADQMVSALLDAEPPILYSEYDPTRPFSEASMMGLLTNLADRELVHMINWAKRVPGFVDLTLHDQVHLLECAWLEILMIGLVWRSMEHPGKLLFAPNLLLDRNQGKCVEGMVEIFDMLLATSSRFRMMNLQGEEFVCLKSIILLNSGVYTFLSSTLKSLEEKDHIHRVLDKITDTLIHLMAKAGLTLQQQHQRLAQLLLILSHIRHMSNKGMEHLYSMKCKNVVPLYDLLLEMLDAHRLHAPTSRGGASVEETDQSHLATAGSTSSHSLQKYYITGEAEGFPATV
# assay: Displacement of fluorescein-labeled estradiol (fluoromone) from human recombinant full-length estrogen receptor alpha after 2 hrs by fluorescence polarization assay
observable: IC50 (nM)
Just the number in nM, nothing appended.

Documented IC50 of O=C(O)/C=C/C=C/c1ccc(C2=C(c3ccc(O)cc3)CCOc3cc(F)ccc32)cc1 : 71.6

Documented IC50 of O=C(/C=C/c1ccc(C2=C(c3ccc(O)cc3)CCOc3cc(F)ccc32)cc1)Nc1ccccc1 : 11.7

Documented IC50 of O=C(/C=C/c1ccc(C2=C(c3ccc(O)cc3)CCOc3cc(F)ccc32)cc1)N1CCN(Cc2ccccc2)CC1 : 74

Documented IC50 of O=C(/C=C/c1ccc(C2=C(c3ccc(O)cc3)CCOc3cc(F)ccc32)cc1)c1ccccc1 : 104

Documented IC50 of CCN(CC)CCNC(=O)/C=C/c1ccc(C2=C(c3ccc(O)cc3)CCOc3cc(F)ccc32)cc1 : 1020

Documented IC50 of O=C(O)/C=C/c1ccc(C2=C(c3ccc(O)cc3)CCSc3cc(F)ccc32)cc1 : 4.1

Documented IC50 of Oc1ccc(C2=C(c3ccc(/C=C/c4ccccc4)cc3)c3ccc(F)cc3OCC2)cc1 : 22400

Documented IC50 of O=C(/C=C/c1ccc(C2=C(c3ccc(O)cc3)CCOc3cc(F)ccc32)cc1)N1CCCC1 : 67

Documented IC50 of O=C(O)CCCOc1ccc(C2=C(c3ccc(O)cc3)CCOc3cc(F)ccc32)cc1 : 147

Documented IC50 of O=C(O)/C=C/c1ccc(C2=C(c3ccc(O)cc3)CCOc3cc(F)ccc32)cc1 : 14

Documented IC50 of O=C(O)/C=C/c1ccc(C2=C(c3ccc(O)cc3)CCOc3ccccc32)cc1 : 21

Documented IC50 of CC(=O)/C=C/c1ccc(C2=C(c3ccc(O)cc3)CCOc3cc(F)ccc32)cc1 : 59

Documented IC50 of CN1CCN(C(=O)/C=C/c2ccc(C3=C(c4ccc(O)cc4)CCOc4cc(F)ccc43)cc2)CC1 : 57

Documented IC50 of Cc1ccc(N2CCN(C(=O)/C=C/c3ccc(C4=C(c5ccc(O)cc5)CCOc5cc(F)ccc54)cc3)CC2)cc1 : 48

Documented IC50 of COc1ccc2c(c1)OCCC(c1ccc(O)cc1)=C2c1ccc(OCC(=O)O)cc1 : 429

Documented IC50 of CCN(CC)C(=O)/C=C/c1ccc(C2=C(c3ccc(O)cc3)CCOc3cc(F)ccc32)cc1 : 349

Documented IC50 of O=Cc1ccc(C2=C(c3ccc(O)cc3)CCOc3cc(F)ccc32)cc1 : 407

Documented IC50 of O=C(/C=C/c1ccc(C2=C(c3ccc(O)cc3)CCOc3cc(F)ccc32)cc1)N1CCNCC1 : 14

Documented IC50 of COc1ccc2c(c1)OCCC(c1ccc(O)cc1)=C2c1ccc(/C=C/C(=O)O)cc1 : 23

Documented IC50 of O=C(O)COc1ccc(C2=C(c3ccc(O)cc3)CCOc3cc(F)ccc32)cc1 : 634

====

# measured target: estrogen receptor alpha/beta (Homo sapiens, UniProt P03372+Q92731)
# assay: Estrogenic activity at estrogen receptor alpha/beta in human Ishikawa cells at 100 uM after 72 hrs by alkaline phosphatase assay relative to estradiol
# Type: ADME, cell-based
# condition label: read-out: Activity
observable: activity at 72 h, 100 µM (%)
Just the number in %, nothing appended.

Documented activity at 72 h, 100 µM of CCN(CC)C(=O)/C=C/c1ccc(C2=C(c3ccc(O)cc3)CCOc3cc(F)ccc32)cc1 : 10

====

# Species: Homo sapiens
# assay: Selectivity index, ratio of IC50 for human recombinant full-length estrogen receptor beta to IC50 for human recombinant full-length estrogen receptor alpha
Mark true (1) for reported Ratio IC50 of 0.6 or greater; mark false (0) for anything smaller.

[Q] Does the compound O=C(/C=C/c1ccc(C2=C(c3ccc(O)cc3)CCOc3cc(F)ccc32)cc1)Nc1ccccc1 have recorded Ratio IC50 that is 0.6 or more?
[A] false (0)

[Q] Does the compound CCN(CC)CCNC(=O)/C=C/c1ccc(C2=C(c3ccc(O)cc3)CCOc3cc(F)ccc32)cc1 have recorded Ratio IC50 that is 0.6 or more?
[A] false (0)

[Q] Does the compound CCN(CC)C(=O)/C=C/c1ccc(C2=C(c3ccc(O)cc3)CCOc3cc(F)ccc32)cc1 have recorded Ratio IC50 that is 0.6 or more?
[A] false (0)

[Q] Does the compound CC(=O)/C=C/c1ccc(C2=C(c3ccc(O)cc3)CCOc3cc(F)ccc32)cc1 have recorded Ratio IC50 that is 0.6 or more?
[A] true (1)

[Q] Does the compound O=C(O)/C=C/C=C/c1ccc(C2=C(c3ccc(O)cc3)CCOc3cc(F)ccc32)cc1 have recorded Ratio IC50 that is 0.6 or more?
[A] false (0)

[Q] Does the compound O=C(/C=C/c1ccc(C2=C(c3ccc(O)cc3)CCOc3cc(F)ccc32)cc1)N1CCCC1 have recorded Ratio IC50 that is 0.6 or more?
[A] false (0)

[Q] Does the compound Cc1ccc(N2CCN(C(=O)/C=C/c3ccc(C4=C(c5ccc(O)cc5)CCOc5cc(F)ccc54)cc3)CC2)cc1 have recorded Ratio IC50 that is 0.6 or more?
[A] true (1)

[Q] Does the compound O=C(/C=C/c1ccc(C2=C(c3ccc(O)cc3)CCOc3cc(F)ccc32)cc1)c1ccccc1 have recorded Ratio IC50 that is 0.6 or more?
[A] true (1)

====

# Organism: Homo sapiens
# assay: Selectivity index, ratio of IC50 for human recombinant full-length estrogen receptor beta to IC50 for human recombinant full-length estrogen receptor alpha
Can you tell me Ratio IC50 for the items I'm about to list?
Lab note: write the figure by itself, no unit.

Documented Ratio IC50 of O=C(O)CCCOc1ccc(C2=C(c3ccc(O)cc3)CCOc3cc(F)ccc32)cc1 : 0.008

Documented Ratio IC50 of COc1ccc2c(c1)OCCC(c1ccc(O)cc1)=C2c1ccc(OCC(=O)O)cc1 : 2.4

Documented Ratio IC50 of O=C(O)/C=C/c1ccc(C2=C(c3ccc(O)cc3)CCSc3cc(F)ccc32)cc1 : 0.8

Documented Ratio IC50 of O=C(O)/C=C/c1ccc(C2=C(c3ccc(O)cc3)CCOc3cc(F)ccc32)cc1 : 5.2

Documented Ratio IC50 of O=C(/C=C/c1ccc(C2=C(c3ccc(O)cc3)CCOc3cc(F)ccc32)cc1)N1CCNCC1 : 1.9

====

Can you tell me IC50 for the items I'm about to list?
Just the number in µM, nothing appended.

Test item O=C(O)CCCOc1ccc(C2=C(c3ccc(O)cc3)CCOc3cc(F)ccc32)cc1 ; Estrogen receptor beta (Homo sapiens); reported IC50 was 0.00123

Test item O=C(/C=C/c1ccc(C2=C(c3ccc(O)cc3)CCOc3cc(F)ccc32)cc1)c1ccccc1 ; Estrogen receptor beta (Homo sapiens); reported IC50 was 0.447

Test item O=C(/C=C/c1ccc(C2=C(c3ccc(O)cc3)CCOc3cc(F)ccc32)cc1)N1CCNCC1 ; Estrogen receptor beta (Homo sapiens); reported IC50 was 0.025

Test item Cc1ccc(N2CCN(C(=O)/C=C/c3ccc(C4=C(c5ccc(O)cc5)CCOc5cc(F)ccc54)cc3)CC2)cc1 ; Estrogen receptor beta (Homo sapiens); reported IC50 was 0.203

Test item CCN(CC)C(=O)/C=C/c1ccc(C2=C(c3ccc(O)cc3)CCOc3cc(F)ccc32)cc1 ; Estrogen receptor beta (Homo sapiens); reported IC50 was 0.043

Test item O=C(/C=C/c1ccc(C2=C(c3ccc(O)cc3)CCOc3cc(F)ccc32)cc1)N1CCCC1 ; Estrogen receptor beta (Homo sapiens); reported IC50 was 0.0024

Test item O=C(/C=C/c1ccc(C2=C(c3ccc(O)cc3)CCOc3cc(F)ccc32)cc1)N1CCN(Cc2ccccc2)CC1 ; Estrogen receptor beta (Homo sapiens); reported IC50 was 0.072

Test item O=C(O)/C=C/c1ccc(C2=C(c3ccc(O)cc3)CCSc3cc(F)ccc32)cc1 ; Estrogen receptor beta (Homo sapiens); reported IC50 was 0.0031

Test item O=C(/C=C/c1ccc(C2=C(c3ccc(O)cc3)CCOc3cc(F)ccc32)cc1)Nc1ccccc1 ; Estrogen receptor beta (Homo sapiens); reported IC50 was 0.00094

Test item CN1CCN(C(=O)/C=C/c2ccc(C3=C(c4ccc(O)cc4)CCOc4cc(F)ccc43)cc2)CC1 ; Estrogen receptor beta (Homo sapiens); reported IC50 was 0.354

Test item O=C(O)COc1ccc(C2=C(c3ccc(O)cc3)CCOc3cc(F)ccc32)cc1 ; Estrogen receptor beta (Homo sapiens); reported IC50 was 0.034

Test item CCN(CC)CCNC(=O)/C=C/c1ccc(C2=C(c3ccc(O)cc3)CCOc3cc(F)ccc32)cc1 ; Estrogen receptor beta (Homo sapiens); reported IC50 was 0.585

Test item O=Cc1ccc(C2=C(c3ccc(O)cc3)CCOc3cc(F)ccc32)cc1 ; Estrogen receptor beta (Homo sapiens); reported IC50 was 0.395

Test item CC(=O)/C=C/c1ccc(C2=C(c3ccc(O)cc3)CCOc3cc(F)ccc32)cc1 ; Estrogen receptor beta (Homo sapiens); reported IC50 was 0.175

Test item COc1ccc2c(c1)OCCC(c1ccc(O)cc1)=C2c1ccc(OCC(=O)O)cc1 ; Estrogen receptor beta (Homo sapiens); reported IC50 was 1.01

Test item Oc1ccc(C2=C(c3ccc(/C=C/c4ccccc4)cc3)c3ccc(F)cc3OCC2)cc1 ; Estrogen receptor beta (Homo sapiens); reported IC50 was 14.3

Test item O=C(O)/C=C/C=C/c1ccc(C2=C(c3ccc(O)cc3)CCOc3cc(F)ccc32)cc1 ; Estrogen receptor beta (Homo sapiens); reported IC50 was 0.00055

Test item O=C(O)/C=C/c1ccc(C2=C(c3ccc(O)cc3)CCOc3ccccc32)cc1 ; Estrogen receptor beta (Homo sapiens); reported IC50 was 0.046

Test item O=C(O)/C=C/c1ccc(C2=C(c3ccc(O)cc3)CCOc3cc(F)ccc32)cc1 ; Estrogen receptor beta (Homo sapiens); reported IC50 was 0.072

Test item COc1ccc2c(c1)OCCC(c1ccc(O)cc1)=C2c1ccc(/C=C/C(=O)O)cc1 ; Estrogen receptor beta (Homo sapiens); reported IC50 was 0.119

FYI, the data here is from ChEMBL document CHEMBL4219027.
